ASSAYED_SYSTEM: recombinant soluble homotrimeric HA, A/northern shoveler/California/HKWF115/2007 (H6N1) (influenza A virus A/northern shoveler/California/HKWF115/2007 (H6N1))
PROCEDURE_SUMMARY: microarray, trimeric HA, transfection supernatant
CONDITION_PARAMETERS: remark: other sources report otherwise
Listing of recorded Trimeric HA Binding RLU by entry.
QUANTITY: Trimeric HA Binding RLU (RLU)

BINDER	OBSERVED_VALUE
TCN-540 (5060_F05) (antibody, V domains shown) VH: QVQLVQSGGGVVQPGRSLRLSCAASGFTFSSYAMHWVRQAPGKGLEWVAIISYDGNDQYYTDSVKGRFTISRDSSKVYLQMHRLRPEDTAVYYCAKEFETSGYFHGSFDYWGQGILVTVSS VL: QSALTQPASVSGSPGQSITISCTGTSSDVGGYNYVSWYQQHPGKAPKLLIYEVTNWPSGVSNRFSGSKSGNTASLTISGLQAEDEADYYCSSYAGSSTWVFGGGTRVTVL	2460
TCN-547 (5092_F11) (antibody, V domains shown) VH: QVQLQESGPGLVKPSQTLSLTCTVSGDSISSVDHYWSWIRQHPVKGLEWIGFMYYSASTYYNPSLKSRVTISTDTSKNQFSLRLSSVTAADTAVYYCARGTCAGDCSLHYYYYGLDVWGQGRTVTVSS VL: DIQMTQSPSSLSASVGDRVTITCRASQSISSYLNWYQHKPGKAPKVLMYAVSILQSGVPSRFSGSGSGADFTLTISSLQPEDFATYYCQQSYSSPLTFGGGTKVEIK	2620

Source: patent US20150104459A1
